Ki values for the compounds below.
# TEST TARGET: MOR (Rattus norvegicus)
# Construct: from tissue
# Sequence (P33535 whole entry): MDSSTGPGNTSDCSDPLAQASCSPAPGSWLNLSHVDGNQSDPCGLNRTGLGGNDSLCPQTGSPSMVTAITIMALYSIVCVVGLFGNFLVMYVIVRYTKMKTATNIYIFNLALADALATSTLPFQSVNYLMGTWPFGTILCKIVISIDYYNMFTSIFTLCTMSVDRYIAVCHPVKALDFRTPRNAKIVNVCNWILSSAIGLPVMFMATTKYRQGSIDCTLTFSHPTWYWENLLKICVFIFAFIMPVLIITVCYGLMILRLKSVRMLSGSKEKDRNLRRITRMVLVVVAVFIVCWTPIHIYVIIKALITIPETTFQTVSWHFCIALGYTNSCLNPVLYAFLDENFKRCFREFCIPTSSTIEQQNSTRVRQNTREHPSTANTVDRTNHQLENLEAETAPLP
# ASSAY REMARKS: Opioid receptor binding, MOR, rat brain membranes
# APPLIED CONDITIONS: Binding Ki MOR, Table 1-4, rat brain membranes
Answer with a number only, understood to be in nM.

Below: 3 compounds and their reported Ki.
COMPOUND: CO[C@@]12CC[C@@H](N[C@@H](CC(N)=O)C(=O)O)[C@@H]3Oc4c(O)ccc5c4[C@@]31CCN(C)[C@@H]2C5 [Compound 27]
TEST TARGET: MOR (Rattus norvegicus)
RECORDED METRIC: Ki
READING: 1.26
--
COMPOUND: CO[C@@]12CC[C@H](N[C@@H](CCC(N)=O)C(=O)O)[C@@H]3Oc4c(O)ccc5c4[C@@]31CCN(C)[C@@H]2C5 [Compound 17]
TEST TARGET: MOR (Rattus norvegicus)
RECORDED METRIC: Ki
READING: 3.24
--
COMPOUND: CO[C@@]12CC[C@H](N[C@@H](CCSC)C(=O)O)[C@@H]3Oc4c(O)ccc5c4[C@@]31CCN(C)[C@@H]2C5 [Compound 23]
TEST TARGET: MOR (Rattus norvegicus)
RECORDED METRIC: Ki
READING: 0.93

Query: Please report Ki for the following compound: COC12CCC(NCCC(=O)O)C3Oc4c(O)ccc5c4C31CCN(C)C2C5 (single isomer, unassigned) [Compound 22]
Response: 1.04

Query: Please give the documented Ki of CC[C@H](C)[C@H](N[C@@H]1CC[C@@]2(OC)[C@H]3Cc4ccc(O)c5c4[C@@]2(CCN3C)[C@H]1O5)C(=O)O [Compound 43]
Response: 1.46

Query: Identify Ki associated with the compound CO[C@@]12CC[C@H](N[C@H](C(=O)O)[C@@H](C)O)[C@@H]3Oc4c(O)ccc5c4[C@@]31CCN(C)[C@@H]2C5 [Compound 34]
Response: 1.03

Query: For the compound COC12CCC(NC(C(=O)O)C(C)C)C3Oc4c(O)ccc5c4C31CCN(C)C2C5 (single isomer, unassigned) [Compound 31] , report Ki.
Response: 1.02

Query: Respond only with Ki recorded for COC12CCC(NCCC(=O)O)C3Oc4c(O)ccc5c4C31CCN(C)C2C5 (single isomer, unassigned) [Compound 21]
Response: 1.3
